The reported numbers originate from the supplement of paper PMC6609913.

- Test system: V-C8 (BRCA2-deficient hamster cells)
- test method notes: normalised cell viability (fraction of plate median); higher = more viable cells (less toxic)
- conditions used: treatment time: 6 days; 5 µM
Structures can show the parent of a compound that is named as a salt. In all, about 1,300 compounds were measured (“normalised cell viability”: median about 1, lowest 2% from about 0.14 on). The sample as a whole holds a higher share of the lowest values than the screen did.
Class boundaries, taken from values of normalised cell viability, are as follows: category 1 (below 0.3), category 2 (0.3 to below 1), category 3 (1 or more)

[[record]]
compound = "CCCNC(C)(C)COC(=O)c1ccccc1 [Meprylcaine hydrochloride]"
discrete_label = "category 3"

[[record]]
compound = "CSc1ccc2c(c1)N(CCC1CCCCN1C)c1ccccc1S2 (centres undefined) [Thioridazine hydrochloride]"
discrete_label = "category 1"

[[record]]
compound = "COC(=O)Nc1nc2cc(C(=O)c3ccccc3)ccc2[nH]1"
discrete_label = "category 1"

[[record]]
compound = "COC(=O)Nc1nc2cc(C(=O)c3cccs3)ccc2[nH]1"
discrete_label = "category 1"

[[record]]
compound = "C#C[C@]1(O)CC[C@H]2[C@@H]3CCC4=CCCC[C@@H]4[C@H]3CC[C@@]21C"
discrete_label = "category 3"

[[record]]
compound = "CC(C)NCC(O)COc1ccc(COCCOC(C)C)cc1 (centres undefined) [Bisoprolol fumarate]"
discrete_label = "category 3"

[[record]]
compound = "CCSc1ccc2c(c1)N(CCCN1CCN(C)CC1)c1ccccc1S2 [Thiethylperazine dimalate]"
discrete_label = "category 3"

[[record]]
compound = "Nc1nc(=S)c2ncn([C@@H]3O[C@H](CO)[C@@H](O)[C@H]3O)c2[nH]1"
discrete_label = "category 1"

[[record]]
compound = "CCCOc1ccc2[nH]c(NC(=O)OC)nc2c1"
discrete_label = "category 1"

[[record]]
compound = "Cc1c(C)c2c(c(C)c1O)CCC(C)(COc1ccc(CC3SC(=O)NC3=O)cc1)O2 (centres undefined)"
discrete_label = "category 2"

[[record]]
compound = "Cc1oncc1C(=O)Nc1ccc(C(F)(F)F)cc1 [Leflunomide]"
discrete_label = "category 2"

[[record]]
compound = "C1CCC(C(CC2CCCCN2)C2CCCCC2)CC1 (centres undefined) [Perhexiline maleate]"
discrete_label = "category 1"

[[record]]
compound = "CC(C)NCC(O)COc1ccc(CCOCC2CC2)cc1 (centres undefined) [Betaxolol hydrochloride]"
discrete_label = "category 1"

[[record]]
compound = "COC(=O)Nc1nc2cc([S+]([O-])c3ccccc3)ccc2[nH]1 (centres undefined)"
discrete_label = "category 2"

[[record]]
compound = "COC(=O)CCc1ccc(OCC(O)CNC(C)C)cc1 (centres undefined) [Esmolol hydrochloride]"
discrete_label = "category 2"

[[record]]
compound = "CN1C(C)(C)CCCC1(C)C [Pempidine tartrate]"
discrete_label = "category 3"

[[record]]
compound = "CN1CCCCC1CCN1c2ccccc2Sc2ccc([S+](C)[O-])cc21 (centres undefined) [Mesoridazine besylate]"
discrete_label = "category 3"


----------
Listed here: items and their measured normalised cell viability.
- Tested on: V-C8 (BRCA2-deficient hamster cells)
- test method notes: normalised cell viability (fraction of plate median); higher = more viable cells (less toxic)
- conditions used: treatment time: 6 days; 5 µM
Structures can show the parent of a compound that is named as a salt. Over roughly 1,300 compounds, “normalised cell viability” has its median near 1; the lowest 2% begin near 0.14. This excerpt belongs to a sample that is enriched for the lowest values.
measure: normalised cell viability

[[record]]
compound = "N#CC(c1ccc(Cl)cc1)c1c(Cl)cc(-n2ncc(=O)[nH]c2=O)cc1Cl (stereo unspecified)"
meas_value = 0.875

[[record]]
compound = "c1ccc2c(c1)CCCc1cc(NCCN3CCOCC3)nnc1-2"
meas_value = 0.496

[[record]]
compound = "CCCc1cc(=O)[nH]c(=S)[nH]1"
meas_value = 1.03

[[record]]
compound = "CN(C/C=C/c1ccccc1)Cc1cccc2ccccc12 [Naftifine hydrochloride]"
meas_value = 0.219

[[record]]
compound = "C=C(NC(=O)C(=C)NC(=O)c1csc(C2=N[C@@H]3c4csc(n4)[C@H]4NC(=O)c5csc(n5)[C@H]([C@](C)(O)[C@@H](C)O)NC(=O)[C@H]5CSC(=N5)/C(=C/C)NC(=O)[C@H]([C@@H](C)O)NC(=O)c5csc(n5)[C@]3(CC2)NC(=O)[C@H](C)NC(=O)C(=C)NC(=O)[C@H](C)NC(=O)[C@H]([C@@H](C)CC)N[C@@H]2C=Cc3c([C@H](C)O)cc(nc3[C@H]2O)C(=O)O[C@@H]4C)n1)C(N)=O"
meas_value = 0.126

[[record]]
compound = "CN[C@@H]1[C@@H](O)[C@@H](O[C@@H]2[C@@H](O)[C@H](O[C@H]3OC(CN)=CC[C@H]3N)[C@@H](N)C[C@H]2N)OC[C@]1(C)O [Sisomicin sulfate]"
meas_value = 0.145

